assay remarks: MM1S cell viability effects, profiling panel, calcein-AM fluorescence, 48 h, basal (AID 1165);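 note: viability of MM1S multiple myeloma cells under basal unstimulated conditions; test concentration not given here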
condition summary: higher = more signal
Examples of compounds with documented z-score follow.

>  <compound>
CC1CC/C=C\[C@H]2OC34C=CCN(Cn5nnc6ccccc65)C(=O)[C@H]3N(C(CO)C(C)C)C(=O)[C@@H]4C2C(=O)O1 (some centres undefined)

>  <z-score>
0.654

$$$$
>  <compound>
O=C1C2C=CC(C(O)C(c3ccccc3)c3ccccc3)N(n3cnnc3)C2C(=O)N1Cc1ccccc1 (centres undefined)

>  <z-score>
-1.09

$$$$
>  <compound>
O=C(C1N=C(c2ccc(OCCCO)cc2)N(c2ccccc2)O1)N1CCOCC1 (centres undefined)

>  <z-score>
0.932

$$$$
>  <compound>
CCCCCCC#C[Si](O[C@H](c1ccccc1)c1cn([C@H](CO)Cc2ccccc2)nn1)(C(C)C)C(C)C

>  <z-score>
-0.178

$$$$

---

assay remarks: basal RPMI8226 mitochondrial membrane potential changes, profiling panel, cell-based, JC-1 fluorescence, 24 h, 100 nL compound (AID 1169); note: test concentration not given here
condition summary: RPMI8226 myeloma, JC-1 mitochondrial potential fluorescence, higher = more signal
Quick rule for you: z-score at -0.2 or higher means MET, lower means NOT MET.

>  <compound>
C=CC[C@@]1(C(=O)N(C)C)N=C(c2ccc(OCCCO)cc2)O[C@@H]1c1ccccc1N=[N+]=[N-]

>  <class>
NOT MET

$$$$
>  <compound>
CN1C(=O)C2C=CC(C(O)C3=C[C@H]4C[C@@H](C3)C4(C)C)N(Nc3ccccc3)C2C1=O (some centres undefined)

>  <class>
NOT MET

$$$$
>  <compound>
CCCCN1CC=CC23O[C@@H]4/C=C\CCC(C)OC(=O)C4[C@H]2C(=O)N(CCCCCO)[C@@H]3C1=O (some centres undefined)

>  <class>
MET

$$$$
>  <compound>
CCCCCN1CC=CC23O[C@@H]4/C=C\CCCOC(=O)C4[C@H]2C(=O)N(CCCO)[C@@H]3C1=O (some centres undefined)

>  <class>
MET

$$$$
>  <compound>
CN1C2C=C(CCCO)C(C3C(=O)N(C(N)=O)C(=O)C32)C1c1ccc(CN2CCCC2)cc1 (centres undefined)

>  <class>
MET

$$$$
>  <compound>
O=C(NCc1ccccc1)[C@@]1(Cc2ccccc2)N=C(c2ccc(OCCCO)cc2)O[C@H]1c1ccccc1

>  <class>
NOT MET

$$$$
>  <compound>
O=C1C2C=CC(C(O)C3CCCCC3)N(Nc3ccc([N+](=O)[O-])cc3)C2C(=O)N1c1ccccc1 (centres undefined)

>  <class>
MET

$$$$
>  <compound>
CC1CC/C=C\[C@H]2OC34C=CCN(C(C)(C)C)C(=O)[C@H]3N(CCCCCCO)C(=O)[C@@H]4C2C(=O)O1 (some centres undefined)

>  <class>
MET

$$$$
>  <compound>
COCC(=C=CC[C@@H](O)c1ccccc1OCCO)C[C@@H](O)c1cc(Cl)cc(Cl)c1O

>  <class>
NOT MET

$$$$
>  <compound>
O=C1O[C@@H](c2ccccc2)[C@@H](c2ccccc2)N2[C@@H](c3ccc(OCCO)cc3)[C@]3(C(=O)Nc4ccccc43)[C@@H](C(=O)NC[C@H](O)c3ccccc3)[C@H]12

>  <class>
NOT MET

$$$$
>  <compound>
O=C(O)[C@@]1(CCS(=O)(=O)c2ccccc2)COC(c2ccc(OCCCO)cc2)=N1

>  <class>
MET

$$$$
>  <compound>
COCCn1c(C(=O)N2CCCC2)cc2c1C[C@H]1CN(C(=O)c3ccccc3)[C@@](Cc3ccc(F)cc3)(C(=O)OC)[C@@H]21

>  <class>
NOT MET

$$$$
>  <compound>
[N-]=[N+]=NCc1ccccc1[C@H]1OC(c2ccc(OCCCO)cc2)=N[C@@]1(Cc1ccccc1)C(=O)NCc1ccccc1

>  <class>
NOT MET

$$$$
>  <compound>
O=C1C2C=CC(C(O)c3ccc(F)cc3)N(Nc3ccccc3F)C2C(=O)N1c1ccccc1 (centres undefined)

>  <class>
MET

$$$$
>  <compound>
COCC(=C=CC[C@H](O)c1ccccc1OCCO)C[C@H](O)c1cc(Cl)cc(Cl)c1O

>  <class>
NOT MET

$$$$
>  <compound>
CC1CC/C=C\[C@H]2OC34C=CCN(c5ccc(Cl)cc5)C(=O)[C@H]3N(CCO)C(=O)[C@]4(C)C2C(=O)O1 (some centres undefined)

>  <class>
MET

$$$$
>  <compound>
C=C/C=C/[C@H]1C(=C)CN([C@@H](Cc2ccccc2)C(=O)OC)[C@@H]1[C@H](O)Cc1ccccc1

>  <class>
NOT MET

$$$$
>  <compound>
C=CCNC(=O)[C@H]1[C@@H]2C(=O)O[C@@H](c3ccccc3)[C@@H](c3ccccc3)N2[C@@H](c2ccc(OCCO)cc2)[C@]12C(=O)N(C(=O)OCCOC)c1ccccc12

>  <class>
NOT MET

$$$$
>  <compound>
COCCOC(=O)N1C(=O)[C@@]2(c3cc(C#Cc4ccc(OC)cc4)ccc31)[C@H](c1ccccc1OCCO)N1[C@H](c3ccccc3)[C@H](c3ccccc3)OC(=O)[C@H]1[C@@H]2C(=O)N1CCN(c2ncccn2)CC1

>  <class>
NOT MET

$$$$
>  <compound>
[N-]=[N+]=NCc1ccccc1[C@@H]1OC(c2ccc(OCCCO)cc2)=N[C@]1(Cc1ccccc1N=[N+]=[N-])C(=O)N1CCOCC1

>  <class>
NOT MET

$$$$
>  <compound>
COc1ccc(C(=O)Nc2ccc(CN3C(=O)[C@@]4(O[C@@H](CCO)[C@H]([Si](C)(C)c5ccc(OC)cc5)[C@H]4C)c4ccccc43)cc2)cc1

>  <class>
NOT MET

$$$$
>  <compound>
CCN(CC)c1ccc(N2CC=CC34O[C@@H]5/C=C\CCC(C)OC(=O)C5[C@H]3C(=O)N(C(CO)C(C)C)[C@@H]4C2=O)cc1 (some centres undefined)

>  <class>
MET

$$$$
>  <compound>
CN(C)CCCNC(=O)[C@@]1(c2ccc([N+](=O)[O-])cc2)CC(=O)N(C2CCCCC2)[C@@H]1c1ccc(CO)cc1I

>  <class>
NOT MET

$$$$
>  <compound>
C=CCNC(=O)[C@H]1[C@@H]2C(=O)O[C@@H](c3ccccc3)[C@@H](c3ccccc3)N2[C@@H](c2ccc(O)cc2)[C@]12C(=O)N(C(=O)OCCOC)c1ccc(C#CCNC(N)=O)cc12

>  <class>
NOT MET

$$$$
>  <compound>
CCOC(=O)C1=CCC(c2ccccc2)N(S(=O)(=O)CC[Si](C)(C)C)C1 (centres undefined)

>  <class>
MET

$$$$
>  <compound>
CCCCCC1=C2CNC(CCC)(C(=O)OC)C=C2C(C)C1=O (centres undefined)

>  <class>
MET

$$$$
>  <compound>
COC(=O)C(CC#Cc1ccc2c(c1)[C@]1(C(=O)N2)[C@H](C(=O)O)[C@H]2C(=O)O[C@H](c3ccccc3)[C@H](c3ccccc3)N2[C@@H]1c1ccc(O)cc1)C(=O)OC

>  <class>
NOT MET

$$$$
>  <compound>
COC(=O)[C@@]1(Cc2ccccc2)[C@H]2c3cc(C(=O)N4CCCC4)n(CC4CC4)c3C[C@H]2CN1C(=O)c1ccccc1

>  <class>
NOT MET

$$$$
>  <compound>
CC(C)C[C@H]1NC(=O)[C@@]23C(=O)N[C@@H](Cc4ccccc4)C2[C@H](C)[C@@]2(C)O[C@H]2C3/C=C/C/C=C\CNC(=O)[C@H](Cc2ccccc2)NC1=O (some centres undefined)

>  <class>
NOT MET

$$$$
